experiment: Inhibition of VEGFR-2 (unknown origin) induced tube formation in HUVECs cocultured with fibroblasts measured after 11 days with media renewing every 3 days by staining based analysis
Property Measured: pIC50
On this scale, pIC50 is minus log10 of a concentration expressed in M (mol/L).

Entry under test: CCN(CC)CCN1Cc2[nH]c(/C=C3\C(=O)Nc4ccc(Br)cc43)c(C)c2C1=O . Its pIC50 was 6.75
